Collected Percent Effect values appear next to each entry.
target-entity: Ubiquitin-activating enzyme e1, putative (Leishmania donovani (strain BPK282A1)) (UniProt E9BSI1)
Sequence (whole entry): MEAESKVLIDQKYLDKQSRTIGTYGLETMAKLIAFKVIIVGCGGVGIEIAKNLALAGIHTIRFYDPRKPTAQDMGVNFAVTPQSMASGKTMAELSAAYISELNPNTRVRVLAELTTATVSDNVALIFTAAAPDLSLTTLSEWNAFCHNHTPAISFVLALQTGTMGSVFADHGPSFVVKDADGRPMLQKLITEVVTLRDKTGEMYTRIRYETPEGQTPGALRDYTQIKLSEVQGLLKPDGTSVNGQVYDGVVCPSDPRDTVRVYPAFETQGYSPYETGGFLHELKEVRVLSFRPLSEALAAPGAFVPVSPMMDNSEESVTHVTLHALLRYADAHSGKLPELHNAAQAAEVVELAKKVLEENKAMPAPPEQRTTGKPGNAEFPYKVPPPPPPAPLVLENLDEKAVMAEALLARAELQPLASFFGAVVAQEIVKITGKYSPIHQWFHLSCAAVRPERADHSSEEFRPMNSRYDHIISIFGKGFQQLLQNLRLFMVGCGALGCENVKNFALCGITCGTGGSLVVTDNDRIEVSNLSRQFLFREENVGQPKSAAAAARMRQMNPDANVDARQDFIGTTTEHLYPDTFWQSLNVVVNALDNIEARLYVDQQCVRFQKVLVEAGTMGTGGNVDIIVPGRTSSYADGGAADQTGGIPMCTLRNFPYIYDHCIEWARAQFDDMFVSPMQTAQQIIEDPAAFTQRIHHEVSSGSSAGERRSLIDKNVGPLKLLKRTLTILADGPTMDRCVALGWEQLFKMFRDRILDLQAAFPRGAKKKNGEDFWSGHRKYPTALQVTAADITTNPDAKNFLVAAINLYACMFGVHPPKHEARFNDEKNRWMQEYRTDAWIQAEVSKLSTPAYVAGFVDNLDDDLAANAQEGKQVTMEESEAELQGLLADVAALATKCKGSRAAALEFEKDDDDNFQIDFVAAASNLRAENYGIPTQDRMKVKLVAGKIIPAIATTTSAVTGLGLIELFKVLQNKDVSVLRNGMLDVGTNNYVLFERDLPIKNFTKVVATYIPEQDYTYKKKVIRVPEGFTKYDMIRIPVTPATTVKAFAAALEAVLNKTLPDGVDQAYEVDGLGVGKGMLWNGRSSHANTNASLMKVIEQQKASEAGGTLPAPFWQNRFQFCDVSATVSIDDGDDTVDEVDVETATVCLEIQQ
protocol-description: Leishmania donovani Ubiquitin Activating Enzyme (LdE1)
Assay type: functional
Parameters: scale not given: direction of the effect not stated beside the values
particulars: 30 µM
Potency and affinity values are given separately.
readout-name: Percent Effect

>>> reported("Cc1cnn(CC2CCCN2C(=O)c2ccc3[nH]nnc3c2)c1 (configuration not stated)")
"8.86%"
>>> reported("CCS(=O)(=O)N1CCO[C@H]2[C@H](OCC3CCCC3)CC[C@@H]21")
"5.33%"
>>> reported("COc1ccc(C2=C(C)C(N3CCc4ccccc43)=NS2(=O)=O)cc1")
"20.8%"
>>> reported("CCc1ccccc1C(=O)N1CCN(S(C)(=O)=O)[C@@H](C)C1")
"2.74%"
>>> reported("COc1ccc(CNC(=O)Nc2cccnc2N2CCCC2)cc1O")
"16.2%"
>>> reported("O=c1[nH]c2nc(N3CCSCC3)ncc2c(=O)n1-c1cccc(F)c1")
"7.89%"
>>> reported("OC(CN1CCN(Cc2nnc(C3CC3)o2)CC1)c1ccccc1 (configuration not stated)")
"10.1%"
>>> reported("COC1CCN(C(=O)CCc2c(C)nc3ccnn3c2C)CC1")
"5.26%"
>>> reported("CN(C)S(=O)(=O)c1ccc(CN2CCCC2c2ccccc2)o1 (configuration not stated)")
"-7.89%"
>>> reported("CC(=O)c1cn(CC(=O)NC(C(=O)O)C(C)C)c2ccccc12 (configuration not stated)")
"-2.67%"
>>> reported("Cc1nccn1C1CCCN(C(=O)c2ccc(N(C)C)nc2)C1 (configuration not stated)")
"7.89%"
>>> reported("Cc1cnc(CN(C)C2CCN(CCc3ccccn3)CC2)cn1")
"13.5%"
>>> reported("Cc1oncc1C(=O)N1CCC2(CCN(Cc3ccccn3)C2=O)C1 (configuration not stated)")
"-2.74%"
>>> reported("Cc1nnc2n1CCN(Cc1csc(CC(=O)N(C)C)n1)C2")
"10.8%"
>>> reported("COc1ccc(C2OC(COc3ccccc3Br)=NN2C(C)=O)cc1 (configuration not stated)")
"13%"
>>> reported("O=c1oc(-c2cccs2)nn1CC(O)c1ccc(F)cc1 (configuration not stated)")
"0%"
>>> reported("CC(C)N1CC(C(=O)NCCOc2ccc3c(c2)OCO3)CC1=O (configuration not stated)")
"21.1%"
>>> reported("COc1cccc(S(=O)(=O)NC(=O)COC2CCCC2)c1")
"20.8%"
>>> reported("O=C1OC2(CCN(C3CCCOC3)CC2)CN1CCc1ccccc1 (configuration not stated)")
"7.79%"
>>> reported("CCC1CCCN(C(=O)Cc2csc(-c3ncccn3)n2)C1 (configuration not stated)")
"21.1%"
>>> reported("CN(Cc1nnc2n1CCC2)C(=O)NCCc1ccc2c(c1)OCO2")
"21.6%"
>>> reported("CN(C)C(=O)N1CCOCC2(CCN(c3ncccn3)C2)C1 (configuration not stated)")
"8.11%"
>>> reported("O=C(CCC1CCCO1)NS(=O)(=O)c1ccc(Cl)cc1 (configuration not stated)")
"18.9%"
>>> reported("CC(C(=O)Nc1ccc(N2CCCC2)nc1)n1cncn1 (configuration not stated)")
"10.8%"
>>> reported("Cc1csc(N2CCN(C(=O)CCC(=O)c3ccc(C)s3)CC2)n1")
"8.11%"
>>> reported("O=C(N[C@@H]1CN(Cc2ccsc2)[C@@H]2CCCO[C@@H]21)C1CC1")
"18.7%"
>>> reported("Cc1oc(-c2nc(C#N)c(N(C)C)o2)cc1S(=O)(=O)N1CCCC1")
"4%"
>>> reported("CN1CCN(Cc2nc3ccccc3[nH]2)[C@H]2CS(=O)(=O)C[C@H]21")
"8.11%"
>>> reported("Cc1scc(C(=O)N2CCC3(CC(=O)NC3=O)C2)c1-c1ccccc1 (configuration not stated)")
"5.41%"
>>> reported("COc1ccc(F)cc1C(C)NC(=O)Nc1nnc(C)s1 (configuration not stated)")
"10.8%"
>>> reported("Cc1nn(CC(=O)N2CCN(c3ccncc3)CC2)c(C)c1Cl")
"10.5%"
>>> reported("Cc1nc(CN2CCOC(CNc3cccnn3)C2)cs1 (configuration not stated)")
"-8.11%"
>>> reported("O=C(NC1CC1)N1CCc2ncnc(-c3ccncc3)c2CC1")
"10.7%"
>>> reported("CN(C)Cc1nnc(C2CCN(c3nccc(N)n3)CC2)n1C1CC1")
"1.39%"
>>> reported("O=C(NCC1CCCO1)c1c(-n2cnnn2)sc2c1CCC2 (configuration not stated)")
"5.26%"
>>> reported("CCOc1ccc(CNCCCn2ccnc2)cc1Br")
"12%"
>>> reported("Cc1ccc(CN2CCCC3(CCN(S(C)(=O)=O)C3)C2)o1 (configuration not stated)")
"8%"
>>> reported("Cc1ncsc1C(=O)NC1CCN(CC(=O)N(C)C(C)(C)C#N)CC1")
"7.89%"
>>> reported("COCCNC(=O)NCCc1ccn(-c2ccccc2)n1")
"-3.8%"
>>> reported("O=C([C@@H]1CC[C@@H]2[C@@H](CCN2Cc2cccc(F)c2)O1)N1CCCCO1")
"-34.7%"
>>> reported("CCc1noc(C(C)N2CCN(Cc3ncc(C(C)(C)C)o3)CC2)n1 (configuration not stated)")
"28.9%"
>>> reported("CSc1ncccc1C(=O)NCc1ccc(CS(=O)(=O)NC(C)C)cc1")
"13.9%"
>>> reported("O=C1[C@H]2CN(Cc3nccs3)C[C@H]2CN1c1ccsc1")
"0%"
>>> reported("CC(=O)NC(C)CC(=O)NCc1cccnc1Oc1ccccc1C (configuration not stated)")
"9.72%"
>>> reported("c1ccc2sc(N3CCOC(Cn4cccn4)C3)nc2c1 (configuration not stated)")
"13.5%"
>>> reported("CSCc1cccc(S(=O)(=O)NCCCO)c1")
"5.2%"
>>> reported("CN(C)Cc1nn(C)c2c1CCN(S(=O)(=O)c1cccs1)C2")
"13%"
